tested on: CAKI-1; test: NCI tumour cell line growth inhibition, 48 h
Structures can show the parent of a compound that is named as a salt. Calls of active or inactive are those of the source. Rule as the data show it: active = GI50 up to about 1.1 µM and inactive = higher.
Classes used: active, inactive

{"columns": ["Compound", "Category"],
 "data": [
  ["C[C@@H](NC(=O)[C@@H]1C[C@]1(C)COC(=O)c1cc([N+](=O)[O-])cc([N+](=O)[O-])c1)c1cccc2ccccc12", "inactive"],
  ["Cc1cccc2c1c(=O)c1c(O)cc(O)cc1n2C", "inactive"],
  ["CC(C)(C)c1nc2c(o1)/C(=N\\c1ccccc1)c1ccccc1C2=O", "inactive"],
  ["Cn1c(=O)c2nc(CSCc3ccccc3)[nH]c2n(C)c1=O", "inactive"],
  ["COc1cc2c(cc1OC)C(CC1=C(c3ccccc3)CN3CCc4cc(OC)c(OC)cc4C3C1)NCC2 (stereo not given)", "inactive"],
  ["CCOC(=O)CC1(c2cccc3ccccc23)OC(=O)c2ccccc21 (stereo not given)", "inactive"],
  ["ON=C1CCCCC(=NO)CCCC1", "inactive"],
  ["CC1(C)OCC(C2OC(=O)C(OCc3ccccc3)=C2OCc2ccccc2)O1 (stereo not given)", "inactive"],
  ["CCOC(=O)C(=O)Nc1ccc(Cl)c(C(F)(F)F)c1", "inactive"],
  ["S=C(N/N=C(/c1ccccc1)c1ccccn1)Nc1ccc(Cl)cc1", "active"],
  ["CC(=N\\N=C\\c1ccccn1)/C(C)=N/N=C(C)/C(C)=N/N=C/c1ccccn1", "inactive"],
  ["O=C1c2ccccc2NC1(c1ccccc1)c1c(-c2ccccc2)[nH]c2ccccc12 (stereo not given)", "inactive"],
  ["CCOC(=O)c1nc2ccccc2nc1Nc1ccc(Cl)c(Cl)c1", "inactive"],
  ["CC(=O)Oc1ccc2c3c1O[C@H]1[C@H](O)CC[C@@]4(O)[C@@H](C2)N(C)CC[C@]314", "inactive"],
  ["CCc1cc(Cc2cc(CC)c(NC(=O)C(=O)Cc3ccccn3)c(CC)c2Cl)c(Cl)c(CC)c1NC(=O)C(=O)Cc1ccccn1", "inactive"],
  ["Cn1c2c(c3ccccc31)CC1c3c(c4ccccc4n3C)CC21 (stereo not given)", "inactive"],
  ["C/C(=C\\c1ccccc1)n1c(=O)cc(C)n1C", "inactive"],
  ["CCOC(=O)C1(Br)C(c2ccccc2)NC(=O)N(C2OC(COC(=O)c3ccccc3)C(OC(=O)c3ccccc3)C2OC(=O)c2ccccc2)C1(C)Br (stereo not given)", "inactive"],
  ["CCC1NC(/N=N/c2ccc([N+](=O)[O-])cc2)(P(=O)(OC(C)C)OC(C)C)OC1=O (stereo not given)", "inactive"],
  ["CC(C)c1ccc(/C=C2\\CSCC3=C2N=C(S)NC3c2ccc(C(C)C)cc2)cc1 (stereo not given)", "inactive"],
  ["COc1ccc2nc(NC(=O)C(=O)NNC(=O)c3ccncc3)sc2c1", "inactive"],
  ["O=C(OCCN1CCCCCC1)C(c1ccsc1)C1CCCCC1 (stereo not given) [CETIEDIL CITRATE]", "inactive"],
  ["Cc1c(Br)c(Br)c(C)[s+]1[O-]", "inactive"],
  ["CC(=O)Nc1ccc(/C=C/C(=O)c2sc(-n3nc(-c4ccccc4)cc3-c3ccccc3)nc2C)cc1", "inactive"],
  ["COc1cc(/C=C/c2ccc(OC)c(OC)c2)cc(OC)c1 [(E)-3,4,3',5'-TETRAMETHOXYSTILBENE]", "inactive"],
  ["COc1ccc(OC)c(-c2cc(O)c3cc4c(cc3n2)OCO4)c1", "inactive"],
  ["C/C(CC(O)(/C=N/O)c1ccccc1)=N/O (stereo not given)", "inactive"],
  ["COc1cccc(/N=C/c2cc(OC)c(OC)c(OC)c2)c1", "inactive"],
  ["CN(C)C(=S)/N=c1\\ssc(=S)n1Cc1cccs1", "inactive"],
  ["O=C1/C(=C/c2cccc([N+](=O)[O-])c2)N=C(c2ccccc2)N1c1ccc2c(c1)Sc1cc(N3C(=O)/C(=C/c4cccc([N+](=O)[O-])c4)N=C3c3ccccc3)ccc1N2", "inactive"],
  ["O=C(Nc1ccccc1)OCCN=c1c2ccccc2ccc2ccccc12", "inactive"],
  ["CC(=O)O[C@H]1CC[C@@]2(C)C(=CC[C@@H]3[C@@H]2CC[C@]2(C)c4nc(Cl)ccc4C[C@@H]32)C1", "inactive"],
  ["CCNC(=O)COc1ccc(Br)cc1Br", "inactive"],
  ["COc1ccc(/C=C(\\C#N)c2nc3ccccc3c(=O)[nH]2)cc1", "inactive"],
  ["Cc1cccc(C)c1NC(=O)C(=O)CC(=O)CO", "inactive"],
  ["COc1cc(/C=[N+](\\[O-])c2ccccc2Cl)ccc1OC(=S)S", "inactive"],
  ["NNC1=N/C(=C\\c2ccco2)C(=O)N1", "inactive"],
  ["CC1=C(C(=O)NNC(=O)c2ccccc2O)CC(C(=O)NNC(=O)c2ccccc2O)=C(C)N1", "active"],
  ["CC(C)OC(=O)c1ccc(CCc2cc(O)c(Br)cc2O)cc1", "inactive"],
  ["CN(C)CCn1c(=O)c2ccc(NCCCN(C)CCCNc3ccc4c(=O)n(CCN(C)C)c(=O)n5c6ccc(O)cc6c(=O)c3c45)c3c(=O)c4cc(O)ccc4n(c1=O)c23", "active"]
]}

----------
test system: RXF 393; test: NCI tumour cell line growth inhibition, 48 h
The source made the active and inactive calls. Cut-off read from the data, not from the text of the source: active = GI50 up to about 1.1 µM and inactive = higher.
Classes used: active, inactive

{"columns": ["Compound", "Category"],
 "data": [
  ["O=C(CCl)Nc1ccc(C(=O)N/N=C/c2ccc(Cl)cc2)cc1", "active"],
  ["C[C@@H](NC(=O)[C@@H]1C[C@]1(C)COC(=O)c1cc([N+](=O)[O-])cc([N+](=O)[O-])c1)c1cccc2ccccc12", "inactive"],
  ["Cc1c(Cl)ccc2c1NC(=O)C2(O)CC(=O)c1ccc(Cl)cc1 (configuration not stated)", "inactive"],
  ["COc1ccc(OC)c(-c2cc(O)c3cc4c(cc3n2)OCO4)c1", "inactive"],
  ["O=[N+]([O-])c1ccc(Cl)c(C2CC(c3cccc4ccccc34)=Nc3ccccc3[S+]2[O-])c1 (configuration not stated)", "inactive"],
  ["COc1cc(COC(=O)N2CCC2C(=O)O)c([N+](=O)[O-])cc1OC (configuration not stated)", "inactive"],
  ["CC(=O)O[C@@]12[C@@H]3O[C@@]4(O)C[C@]5(C)[C@H]6C[C@@](C(C)C)(O[C@H]5c5ccoc5)O[C@H]1[C@]6(C4)O[C@]2(O)C(C)=CC3(C)C", "inactive"]
]}

----------
Listed compounds paired with reported GI50
tested on: UACC-257; assay: NCI tumour cell line growth inhibition, 48 h
Activity calls are given as the source filed them. No stated cut-off is given here; in the data, active = GI50 up to about 1.1 µM and inactive = higher.

{"columns": ["Compound", "Test System", "GI50"],
 "data": [
  ["CC(C)OC(=O)NCCn1cc(-c2ccccc2)nn1", "UACC-257", "> 100 µM (inactive)"],
  ["O=C(Nc1ccc2ncccc2c1)c1cc2c(cc1Cl)Sc1nccn1S2(=O)=O", "UACC-257", "20.1 µM (inactive)"],
  ["C=C(C)[C@@]1(O)CCC[C@H]1NC(=O)OC(C)(C)C", "UACC-257", "> 100 µM (inactive)"],
  ["Cc1cccc(C)c1NC(=O)C(=O)CC(=O)CO", "UACC-257", "> 100 µM (inactive)"],
  ["CCOC(=O)c1cc(Br)c(-c2onc(C)c2Br)[nH]1", "UACC-257", "93.5 µM (inactive)"],
  ["COc1cc(C(c2ccc3c(c2)OCO3)C2SCCCS2)cc(OC)c1OC (configuration not stated)", "UACC-257", "6.08 µM (inactive)"],
  ["CS(=O)(=O)N1CC(CCl)c2ccc(NO)cc21 (configuration not stated)", "UACC-257", "19.5 µM (inactive)"],
  ["O=C(Nc1ccccc1)OCCN=c1c2ccccc2ccc2ccccc12", "UACC-257", "15.8 µM (inactive)"],
  ["O=c1oc2ccc([N+](=O)[O-])cc2cc1Br", "UACC-257", "> 100 µM (inactive)"],
  ["O=S1(=O)c2ccccc2NC(=S)CC1c1ccccc1 (configuration not stated)", "UACC-257", "24.8 µM (inactive)"],
  ["CSc1nc(NC2OCC(O)C(O)C2O)c(N)c(=O)n1C (configuration not stated)", "UACC-257", "> 100 µM (inactive)"],
  ["CCOC(=O)CC1(c2cccc3ccccc23)OC(=O)c2ccccc21 (configuration not stated)", "UACC-257", "56.4 µM (inactive)"]
]}

----------
system: HCC 2998; test: NCI tumour cell line growth inhibition, 48 h
Active and inactive are the calls of the source. No stated cut-off is given here; in the data, active = GI50 up to about 1.1 µM and inactive = higher.
Measured Attribute: GI50

{"columns": ["Compound", "Test System", "Data Value"],
 "data": [
  ["Nc1ccccc1OCCCOc1ccccc1N", "HCC 2998", "> 100 µM (inactive)"],
  ["CCCCc1c2c(nc3c1CCc1cc4c(nc1-3)-c1nc3c(c(CCCC)c1CC4)CCC/C3=C\\c1ccccc1)/C(=C/c1ccccc1)CCC2", "HCC 2998", "88.3 µM (inactive)"],
  ["CC(C)OC(=O)c1ccc(CCc2cc(O)c(Br)cc2O)cc1", "HCC 2998", "16.1 µM (inactive)"],
  ["O=C(CCl)Nc1ccc(C(=O)N/N=C/c2ccc(Cl)cc2)cc1", "HCC 2998", "9.33 µM (inactive)"],
  ["O=C1c2ccccc2NC1(c1ccccc1)c1c(-c2ccccc2)[nH]c2ccccc12 (stereo not given)", "HCC 2998", "36.6 µM (inactive)"]
]}

Values from ChEMBL document CHEMBL1201862
